Source listed as ChEMBL document CHEMBL1201862.

Consider the following compounds; for each one, report its GI50.
Tested on: HOP-92
Test: NCI tumour cell line growth inhibition, 48 h
The source made the active and inactive calls. Rule as the data show it: active = GI50 up to about 1.1 µM and inactive = higher.

Entry `C/C(CC(=O)Nc1ccccc1C)=N/NS(=O)(=O)c1ccc(C)cc1` ; GI50 = > 100 µM (inactive)

Entry CC1=C(C#N)C(C#N)(C#N)C(NN(C)C)C1 (stereo unspecified) ; GI50 = 15.1 µM (inactive)

Entry O=C(C1OC1c1ccc(Cl)cc1)C12CC3CC(CC(C3)C1)C2 (stereo unspecified) ; GI50 = 16.9 µM (inactive)

Entry `CCOP(=O)(OCC)C(F)(F)Cc1cnc(C)c2c1COC(C)(C)O2` ; GI50 = > 10 µM (inactive)

Entry `C=C(C)[C@H]1C[C@@H]2O[C@@](O)(/C(C)=C\C(=O)/C=C(/C)C[C@H]3OC(=O)[C@@]24O[C@H]34)[C@@H]1O` ; GI50 = > 100 µM (inactive)

Entry `O=[N+]([O-])c1cc2ccc1OCc1cccc(n1)COc1ccc(cc1[N+](=O)[O-])/C=N\CCCCCCCC/N=C\2` ; GI50 = > 100 µM (inactive)

Entry `COC(=O)Cc1cc2c(cc1C(=O)c1ccc(N)cc1)OCO2` ; GI50 = 2.37 µM (inactive)

Entry COc1cc(C2C3=C(NC(=O)C2C#N)c2ccc4ccccc4c2OCC3)cc(OC)c1OC (stereo unspecified) ; GI50 = 10.4 µM (inactive)

Entry `CC(C)SC(=S)Sc1c(Cl)c(Cl)nc(Cl)c1Cl` ; GI50 = 7.69 µM (inactive)

Entry C/C(=N\N)C(CN1CCOCC1)C(c1ccccc1)c1c(O)c2ccccc2oc1=O (stereo unspecified) ; GI50 = 26.3 µM (inactive)

Entry Nc1ncnc2c1cnn2COCC(O)CO (stereo unspecified) ; GI50 = > 100 µM (inactive)

Entry `COc1cc(OC)cc(-n2c(N)c(C#N)c3ccc([N+](=O)[O-])cc3c2=O)c1` ; GI50 = 19.1 µM (inactive)

Entry SC1=NC2=C(CSC/C2=C\c2ccc(Cl)cc2)C(c2ccc(Cl)cc2)N1 (stereo unspecified) ; GI50 = 29.5 µM (inactive)

Entry O=C1c2cc3c(cc2NC(c2ccccc2F)C1O)OCO3 (stereo unspecified) ; GI50 = 33.6 µM (inactive)

Entry `Cn1c(=O)c2nc(CCCc3ccc([N+](=O)[O-])cc3)[nH]c2n(C)c1=O` ; GI50 = > 100 µM (inactive)

Entry `COc1cc(OC)c(C2(c3c(OC(C)C)c(=O)c3=O)SCCCS2)cc1OC` ; GI50 = > 100 µM (inactive)

Entry `O=[N+]([O-])c1ccc(CSc2nncc3[nH]cnc23)cc1` ; GI50 = 10.6 µM (inactive)

Entry `N=c1oc2ccc(Cl)cc2cc1C(=O)Nc1ccccc1` ; GI50 = 10.5 µM (inactive)

Entry `N#Cc1c(-c2ccc(Cl)c(Cl)c2)c(-c2ccc(Cl)c(Cl)c2)nn(CC(=O)O)c1=O` ; GI50 = > 100 µM (inactive)

Entry `CCOC(=O)c1c[nH]c2c(ccc3nn(C)nc32)c1=O` ; GI50 = > 100 µM (inactive)

Entry `N=C(N)SCc1ccc(Cl)c2ccccc12.O=[N+]([O-])c1ccc(O)c([N+](=O)[O-])c1` ; GI50 = 6.67 µM (inactive)

Entry Cc1cc(Cl)ccc1NC(=O)/C(=N\NC(C)(C)C)C(C#N)c1nc(-c2ccc([N+](=O)[O-])cc2)cs1 (stereo unspecified) ; GI50 = > 100 µM (inactive)

Entry COc1cc2c(cc1OC)C(C1CC1)ON(C)CC2 (stereo unspecified) ; GI50 = > 100 µM (inactive)

Entry CCOC(=O)CCC(NC(=O)c1ccc(Nc2cnc3ccc(C(F)(F)F)cc3n2)cc1)C(=O)OCC (stereo unspecified) ; GI50 = 8.36 µM (inactive)

Entry COC(=O)NC1C(C)OC(OC2C/C=C(/C)C3C=CC4C(OC5CC(OC6CC(O)C(OC7CC(O)C(OC)C(C)O7)C(C)O6)C(O)C(C)O5)C(C)CC(C)C4C3(C)C(=O)C3=C(O)C4(CC(C)C(CO)=CC4/C=C\2C)OC3=O)CC1(C)[N+](=O)[O-] (stereo unspecified) ; GI50 = 5.45 µM (inactive)

Entry `O=C1CCC2(CC1)SCCCS2` ; GI50 = > 100 µM (inactive)

Entry `O=S(=O)(O)c1cc(S(=O)(=O)O)c2cc(/N=N/c3ccc(/N=N/c4ccc(/C=C/c5ccc(/N=[N+](/[O-])c6ccc(/C=C/c7ccc(/N=N/c8ccc(/N=N/c9ccc%10cc(S(=O)(=O)O)cc(S(=O)(=O)O)c%10c9)cc8)cc7S(=O)(=O)O)c(S(=O)(=O)O)c6)cc5S(=O)(=O)O)c(S(=O)(=O)O)c4)cc3)ccc2c1` ; GI50 = > 58.5 µM (inactive)

Entry `Nc1ccc(S(=O)(=O)c2ccc(/N=[N+](\[O-])c3ccc(S(=O)(=O)c4ccc(N)cc4)cc3)cc2)cc1` ; GI50 = 10.1 µM (inactive)

Entry `Cc1c(-c2c(C)c3ccccc3n2S(=O)(=O)c2ccccc2)n(S(=O)(=O)c2ccccc2)c2ccccc12` ; GI50 = > 100 µM (inactive)

Entry `COc1ccc(/N=N/C(=N\c2ccc(F)cc2)c2ccc(N(CCC#N)CCC#N)cc2)cc1` ; GI50 = 25.6 µM (inactive)

Entry `Cc1no[n+]([O-])c1/C=N/NS(=O)(=O)c1ccccc1` ; GI50 = > 100 µM (inactive)

Entry `Cc1cc2nc(N3C(=O)/C(=C/c4ccc(Cl)cc4)N=C3c3ccccc3)sc2cc1C` ; GI50 = 8.55 µM (inactive)

Entry `OCCOCCN1CCN(CCCN2c3ccccc3Sc3ccc(C(F)(F)F)cc32)CC1` ; GI50 = 14.1 µM (inactive)

Entry `Cc1ccc(NC(=O)c2cc(S(=O)(=O)Nc3nc4cccnc4[nH]3)c(SSc3cc(Cl)c(C(=O)Nc4ccc(C)cc4)cc3S(=O)(=O)Nc3nc4cccnc4[nH]3)cc2Cl)cc1` ; GI50 = > 100 µM (inactive)

Entry CC(=O)N1C(C(=O)NC2CCCCC2)CSC1c1ccccc1 (stereo unspecified) ; GI50 = 68.2 µM (inactive)

Entry `Cc1c(Cl)c2ccccc2n1S(=O)(=O)c1ccccc1` ; GI50 = 15.7 µM (inactive)
